Test system: E. coli W3110
Experiment: Broth microdilution MIC
Type: cell-based, Escherichia coli
Conditions: E. coli W3110, Müller-Hinton medium, 16–20 h at 37 °C; at least two independent duplicates
assay_readout: E. coli MIC (mg/L)
Use mg/L as the unit, but write only the number.

Example entries and their recorded answers appear below.
sequence_entry: KYKKALKKLAKLL [sr^1/3-SB1]
E. coli MIC / mg/L: 16
//
sequence_entry: VQWRAIRVRVIR [sr-DJK5]
E. coli MIC / mg/L: 16
//
sequence_entry: ILPWKWPWWPWRR [sr-Indo]
E. coli MIC / mg/L: 16
//
sequence_entry: KYKKALKKLAKLL [rac-SB1]
E. coli MIC / mg/L: 1
//
sequence_entry: KYKKALKKLAKLL [sr-SB1]
E. coli MIC / mg/L: 32

Now take the following sequence into account.
Challenge: Name the recorded E. coli MIC of the item KYKKALKKLAKLL [sr^3/1-SB1] in your answer.
Response given: 16

Attribution: paper PMC7845017
